Molecular target: T1, natriuretic peptide receptor-B (human)
T1 chain: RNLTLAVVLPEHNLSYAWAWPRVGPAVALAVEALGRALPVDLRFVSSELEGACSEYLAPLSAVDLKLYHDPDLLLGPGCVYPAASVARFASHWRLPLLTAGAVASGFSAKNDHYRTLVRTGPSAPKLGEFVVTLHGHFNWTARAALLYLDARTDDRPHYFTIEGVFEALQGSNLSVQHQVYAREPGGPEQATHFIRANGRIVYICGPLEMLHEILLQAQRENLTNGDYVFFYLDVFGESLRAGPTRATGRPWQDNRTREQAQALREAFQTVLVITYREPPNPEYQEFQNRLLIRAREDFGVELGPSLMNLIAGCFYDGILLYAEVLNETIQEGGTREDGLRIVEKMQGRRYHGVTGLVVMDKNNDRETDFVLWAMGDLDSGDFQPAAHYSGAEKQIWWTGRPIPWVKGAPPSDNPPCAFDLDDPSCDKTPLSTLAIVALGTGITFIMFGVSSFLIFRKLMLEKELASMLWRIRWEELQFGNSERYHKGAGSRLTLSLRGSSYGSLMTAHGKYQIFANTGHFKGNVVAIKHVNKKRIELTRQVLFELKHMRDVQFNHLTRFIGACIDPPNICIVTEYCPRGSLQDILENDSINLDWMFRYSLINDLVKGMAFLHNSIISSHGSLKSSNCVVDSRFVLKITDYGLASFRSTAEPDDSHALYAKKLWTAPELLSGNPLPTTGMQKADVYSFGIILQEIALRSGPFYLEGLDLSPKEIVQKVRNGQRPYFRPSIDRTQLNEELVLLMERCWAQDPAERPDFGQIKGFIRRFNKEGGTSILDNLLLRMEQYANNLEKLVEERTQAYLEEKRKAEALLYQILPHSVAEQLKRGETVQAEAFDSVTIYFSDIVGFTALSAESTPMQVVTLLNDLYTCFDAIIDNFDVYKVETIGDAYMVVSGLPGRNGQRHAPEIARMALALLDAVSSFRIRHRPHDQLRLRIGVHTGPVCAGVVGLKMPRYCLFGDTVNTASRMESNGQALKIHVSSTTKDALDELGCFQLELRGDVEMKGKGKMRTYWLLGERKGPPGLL
Experiment: cell-based or functional assay
Numbered stars: 1 amine (or outer) side, 2 acyl side, 3 side chain; on linkers, the order of the positions; unused ones are H or OH. Square brackets hold non-standard residues; d marks the D form. Ends that are not written are not given here. * marks the point of attachment. Ebe = (R)-2-amino-3-(methylsulfanyl)propanoic acid, CSC[C@H](N[*:1])C(=O)[*:2]; Hyp = O=C(O)[C@@H]1C[C@@H](O)CN1; NMeL = CN[C@@H](CC(C)C)C(=O)O; Hexanoyl = CCCCCC(=O)*; Occ = octanoic acid; GABA = NCCCC(=O)O
Each entry below lists one item and its recorded EC50 group, cGMP in GTM-3 cells value.
Parameter Measured: EC50 group, cGMP in GTM-3 cells

Binder: [Occ]AFGL[Hyp][NMeL]DRI-NH2 (not fully specified (residue 2); printed as Occ-ala-Phe-Gly-Leu-Hyp-Nml-Asp-Arg-Ile-) [JAL-1016]
Result: ≤ 5 µM
//
Binder: Hexanoyl-[GABA]FGLKLDRIS[Ebe]-NH2 (SMILES CCCCCC(=O)NCCCC(=O)N[C@@H](Cc1ccccc1)C(=O)NCC(=O)N[C@@H](CC(C)C)C(=O)N[C@@H](CCCCN)C(=O)N[C@@H](CC(C)C)C(=O)N[C@@H](CC(=O)O)C(=O)N[C@@H](CCCNC(=N)N)C(=O)N[C@H](C(=O)N[C@@H](CO)C(=O)N[C@@H](CSC)C(N)=O)[C@@H](C)CC) [JAL-0542]
Result: ≤ 15 µM
